B1: Far upstream element-binding protein 3, residues 75 to 150; numbered along this chain, Q96I24 (parent)
chain: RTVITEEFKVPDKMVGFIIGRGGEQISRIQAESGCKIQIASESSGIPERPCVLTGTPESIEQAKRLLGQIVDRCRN

# Variants of: B1
# test_summary: abundance fitness (aPCA) (normalised: wild type 0, dead -1); higher = more abundant; growth selection in yeast, the domain comes from the species named
# condition_parameters: Homo sapiens
property_label: abundance fitness
The answer should be a number; do not append a unit.

Some solved cases for reference:
# mutant_code, reported_value
measured = [
    ("Q69V", -0.009),
    ("K13I", -0.286),
    ("E32L", -0.044),
    ("I46V", -0.007),
    ("R75V", 0.008),
    ("I70L", -0.035),
    ("M14R", -0.423),
    ("C35Y", -0.578),
]

Name the reported abundance fitness value associated with the variant I39Y
-0.327

Okay, and E24S ?
0.016

Origin of the recorded values: the Human Domainome abundance scans (Beltran et al. 2025)
